Kindly supply the reported IC50 values for the records listed here.
# Target Or Test System: RORγ (Homo sapiens, UniProt P51449)
# Construct: expressed in transfected cells; host or cells: 293FT cells (Invitrogen), expression vector pFN26A (Promega)
# Sequence (P51449 269-508 limits assumed): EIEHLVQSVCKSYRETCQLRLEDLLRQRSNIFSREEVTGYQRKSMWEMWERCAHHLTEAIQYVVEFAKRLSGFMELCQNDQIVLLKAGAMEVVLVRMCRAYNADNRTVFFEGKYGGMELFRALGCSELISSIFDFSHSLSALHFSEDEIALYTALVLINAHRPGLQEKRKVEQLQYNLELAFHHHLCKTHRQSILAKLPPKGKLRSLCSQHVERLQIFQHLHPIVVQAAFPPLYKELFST
# Method: RORγ GAL4 reporter gene assay (luciferase readout, 293FT cells)
# Type: cell-based
# Conditions Used: inhibition of RORγ (GAL4-RORγ-LBD) in transfected 293FT cells, luciferase signal, overnight incubation; read-out: mean pIC50 (converted)
# Method: RORγ GAL4 Reporter Gene Assay Example inhibitors 1-38 were tested for their ability to inhibit RORγ activity in a RORγ GAL4 reporter gene assay. The assay procedure and results are described below. RORγ GAL4 Reporter Gene Assay Description A GAL4 one-hybrid reporter system employing luciferase readout was established to determine inhibition of RORγ in 293FT cells. […] For compound screening, the cells were harvested (as described above) and counted. […]

Input COC(c1ccc(NC(=O)Cc2ccc(S(=O)(=O)CC3CC3)nc2)cc1)(C(F)(F)F)C(F)(F)F [Example 2] , output reported IC50. ≤ 100 nM

Input COc1cc(C(O)(C(F)(F)F)C(F)(F)F)ccc1NC(=O)Cc1ccc(S(=O)(=O)CC2CC2)nc1 [Example 9] , output reported IC50. ≤ 1000 nM

Input O=C(Cc1ccc(S(=O)(=O)CC2CC2)nc1)Nc1ccc(C(OCCO)(C(F)(F)F)C(F)(F)F)cc1 [Example 28] , output reported IC50. ≤ 1000 nM

Input CC(C)CCC(O)(c1ccc(NC(=O)Cc2ccc(S(=O)(=O)CC3CC3)nc2)cc1)C(F)(F)F (stereo not shown) [Example 13] , output reported IC50. ≤ 1000 nM

Input COc1cc(NC(=O)Cc2ccc(S(=O)(=O)CC3CC3)nc2)ccc1C(O)(C(F)(F)F)C(F)(F)F [Example 6] , output reported IC50. ≤ 1000 nM

Input O=C(Cc1ccc(S(=O)(=O)CC2CC2)nc1)Nc1ccc(C(O)(C(F)(F)F)C(F)(F)F)c(F)c1 [Example 4] , output reported IC50. ≤ 100 nM

Input O=C(Cc1ccc(S(=O)(=O)CC2CC2)nc1)Nc1ccc(C(O)(CC2CCCC2)C(F)(F)F)cc1 (stereo not shown) [Example 15] , output reported IC50. ≤ 1000 nM

Input Cc1cc(S(=O)(=O)CC2CC2)ncc1CC(=O)Nc1ccc(C(O)(C(F)(F)F)C(F)(F)F)cc1 [Example 23] , output reported IC50. ≤ 1000 nM

Input O=C(Cc1ccc(S(=O)(=O)CC2CC2)nc1)Nc1ccc(C(O)(C(F)(F)F)C(F)(F)F)cc1F [Example 8] , output reported IC50. ≤ 100 nM

Input CC(C)CC(O)(c1ccc(NC(=O)Cc2ccc(S(=O)(=O)CC3CC3)nc2)cc1)C(F)(F)F (stereo not shown) [Example 12] , output reported IC50. ≤ 100 nM

Input CCCC(O)(c1ccc(NC(=O)Cc2ccc(S(=O)(=O)CC3CC3)nc2)cc1)C(F)(F)F (stereo not shown) [Example 11] , output reported IC50. ≤ 1000 nM

Input Cc1cc(C(O)(C(F)(F)F)C(F)(F)F)ccc1NC(=O)Cc1ccc(S(=O)(=O)CC2CC2)nc1 [Example 7] , output reported IC50. ≤ 1000 nM

Input O=C(Cc1ccc(S(=O)(=O)CC2CC2)nc1)Nc1ccc(C(O)(C(F)(F)F)C(F)(F)F)cc1 [Example 1] , output reported IC50. ≤ 100 nM

Input O=C(Cc1ncc(S(=O)(=O)CC2CC2)cn1)Nc1ccc(C(O)(C(F)(F)F)C(F)(F)F)cc1 [Example 35] , output reported IC50. ≤ 1000 nM

Input O=C(Cc1ccc(S(=O)(=O)CC2CC2)nc1)Nc1ccc(C(O)(c2ccccc2)C(F)(F)F)cc1 (stereo not shown) [Example 19] , output reported IC50. ≤ 100 nM

Input CCC(O)(c1ccc(NC(=O)Cc2ccc(S(=O)(=O)CC3CC3)nc2)cc1)C(F)(F)F (racemic) [Example 20] , output reported IC50. ≤ 1000 nM

Input O=C(Cc1ccc(S(=O)(=O)CC2CC2(F)F)nc1)Nc1ccc(C(O)(C(F)(F)F)C(F)(F)F)cc1 (racemic) [(−)-22] , output reported IC50. ≤ 1000 nM

Input COCCOC(c1ccc(NC(=O)Cc2ccc(S(=O)(=O)CC3CC3)nc2)cc1)(C(F)(F)F)C(F)(F)F [Example 27] , output reported IC50. ≤ 100 nM

Input O=C(Cc1ccc(S(=O)(=O)CC2CC2)cn1)Nc1ccc(C(O)(C(F)(F)F)C(F)(F)F)cc1 [Example 29] , output reported IC50. ≤ 100 nM

Input Cc1nc(S(=O)(=O)CC2CC2)ccc1CC(=O)Nc1ccc(C(O)(C(F)(F)F)C(F)(F)F)cc1 [Example 24] , output reported IC50. ≤ 1000 nM

Input Cc1cc(NC(=O)Cc2ccc(S(=O)(=O)CC3CC3)nc2)ccc1C(O)(C(F)(F)F)C(F)(F)F [Example 3] , output reported IC50. ≤ 100 nM

Input O=C(Cc1ccc(S(=O)(=O)CC2CC2)nc1)Nc1ccc(C(O)(CC2CCCCC2)C(F)(F)F)cc1 (stereo not shown) [Example 16] , output reported IC50. ≤ 1000 nM

Input O=C(Cc1cnc(S(=O)(=O)CC2CC2)nc1)Nc1ccc(C(O)(C(F)(F)F)C(F)(F)F)cc1 [Example 38] , output reported IC50. ≤ 1000 nM

Input CC(C)OC(c1ccc(NC(=O)Cc2ccc(S(=O)(=O)CC3CC3)cn2)cc1)(C(F)(F)F)C(F)(F)F [Example 30] , output reported IC50. ≤ 100 nM

Input COC(c1ccc(NC(=O)Cc2ccc(S(=O)(=O)CC3CC3)cn2)cc1)(C(F)(F)F)C(F)(F)F [Example 34] , output reported IC50. ≤ 100 nM
